The measured values listed here are drawn from PubChem BioAssay (NCI).

# Test system: HS 578T breast
# procedure text: NCI-60 one-dose screen, 48 h
# conditions used: 10 µM
Compounds without any hit were thinned out: in the full panel of roughly 83,000, 20% have a hit. Activity calls are given as the source filed them. How the source made its calls: active means growth percent below 10; inactive means the rest.
Log the outcome using a class from active, inactive

GET /call?item= O=C1c2ccccc2C2N1CCC1CCc3ccccc3N12 (stereo unspecified) returns the recorded outcome of this test. inactive

GET /call?item= "C/C(=N\OC(=O)Nc1ccccc1)c1ccccc1" returns the recorded outcome of this test. inactive

GET /call?item= CCOC(C)(c1ccc(Cl)cc1)C1CCNCC1 (stereo unspecified) returns the recorded outcome of this test. inactive

GET /call?item= "N#Cc1c(N)c(C(=O)c2ccc3c(c2)OCCO3)n2c1CCCC2" returns the recorded outcome of this test. inactive

GET /call?item= "O=C1C=CC(=O)N1c1cccc(N2C(=O)C=CC2=O)c1" returns the recorded outcome of this test. inactive

GET /call?item= CC(C)N=C1CCCC1C(=S)SSC(=S)C1CCCC1=NC(C)C (stereo unspecified) returns the recorded outcome of this test. inactive

GET /call?item= "Cc1nc([C@H]2CC[C@H]3[C@@H]4CCC5=CC(=O)CC[C@]5(C)[C@H]4CC[C@]23C)cs1" returns the recorded outcome of this test. inactive

GET /call?item= "COc1ccc(-c2[nH]nc(N)c2-c2cc(OC)c(OC)c(OC)c2)cc1" returns the recorded outcome of this test. inactive

GET /call?item= "COc1ccc([C@@H]2[C@@H](Cl)C(=O)N2c2cc(OC)c(OC)c(OC)c2)cc1C" returns the recorded outcome of this test. inactive

GET /call?item= "COc1ccc2[nH]cc(/C=C3\C(=O)Nc4ccccc43)c2c1" returns the recorded outcome of this test. inactive

GET /call?item= "COc1cc(/C=C/c2ccc3c(Br)cc(Br)c(O)c3n2)ccc1O" returns the recorded outcome of this test. active
